Tested on: Intestine
Test: Drug uptake in ICR mouse intestine assessed per organ at 370 kBq/100 ul, iv at 2 mins by gamma-counting analysis
Format: ADME, organism-based
Settings: in vivo
measuredMetric: Drug uptake (%ID)

INSERT INTO results (structurenotation, measurementunit, reported) VALUES
  ('CNc1ccc(-c2nc3ccc(OCC[18F])cc3s2)cn1', '%ID', 12.06),
  ('CNc1ccc(-c2nc3cc(OCC[18F])ccc3o2)cn1', '%ID', 9.87),
  ('CN(C)c1ccc(-c2nc3cc(OCCOCCOCC[18F])ccc3o2)cn1', '%ID', 8.13),
  ('CN(C)c1ccc(-c2nc3ccc(OCCOCCOCC[18F])cc3s2)cn1', '%ID', 4.68),
  ('CN(C)c1ccc(-c2nc3cc(OCC[18F])ccc3o2)cn1', '%ID', 8.41);

[I] CNc1ccc(-c2nc3cc(OCCOCCOCC[18F])ccc3o2)cn1
[II] CNc1ccc(-c2nc3ccc(OCCOCCOCC[18F])cc3s2)cn1
// query Param pair: I , II . Output: the one whose Drug uptake is numerically greater. Write the label of whichever entry you select.
// result I
(I: 10.81 %ID, II: 5.69 %ID)

* * *

Test system: Bone
Experiment: Drug uptake in ICR mouse bone at 370 kBq/100 ul, iv at 10 mins by gamma-counting analysis
Format: ADME, organism-based, Bone element
Conditions: in vivo
measuredMetric: Drug uptake (% ID/g)

INSERT INTO assay_data (structurenotation, targetentity, measuredmetric, reported) VALUES
  ('CNc1ccc(-c2nc3cc(OCCOCCOCC[18F])ccc3o2)cn1', 'Bone', 'Drug uptake', 1.92);

[a] CN(C)c1ccc(-c2nc3cc(OCCOCCOCC[18F])ccc3o2)cn1
[b] CN(C)c1ccc(-c2nc3ccc(OCCOCCOCC[18F])cc3s2)cn1
// query Param pair: a , b . Output: the one whose Drug uptake is numerically greater. Write the label of whichever entry you select.
// result a
(a: 2.7 % ID/g, b: 0.95 % ID/g)

[1] CNc1ccc(-c2nc3cc(OCC[18F])ccc3o2)cn1
[2] CNc1ccc(-c2nc3ccc(OCC[18F])cc3s2)cn1
// query Param pair: 1 , 2 . Output: the one whose Drug uptake is numerically greater. Write the label of whichever entry you select.
// result 2
(2: 2.43 % ID/g, 1: 1.11 % ID/g)

[A] CNc1ccc(-c2nc3ccc(OCCOCCOCC[18F])cc3s2)cn1
[B] CN(C)c1ccc(-c2nc3cc(OCC[18F])ccc3o2)cn1
// query Param pair: A , B . Output: the one whose Drug uptake is numerically greater. Write the label of whichever entry you select.
// result B

* * *

System: Lung
Assay: Drug uptake in ICR mouse lung at 370 kBq/100 ul, iv at 10 mins by gamma-counting analysis
Format: ADME, organism-based
Conditions: in vivo
measuredMetric: Drug uptake (% ID/g)

INSERT INTO measurements (structurenotation, measurementunit, reported) VALUES
  ('CN(C)c1ccc(-c2nc3cc(OCCOCCOCC[18F])ccc3o2)cn1', '% ID/g', 2.34),
  ('CNc1ccc(-c2nc3ccc(OCCOCCOCC[18F])cc3s2)cn1', '% ID/g', 3.36),
  ('CNc1ccc(-c2nc3cc(OCCOCCOCC[18F])ccc3o2)cn1', '% ID/g', 3.15),
  ('CN(C)c1ccc(-c2nc3cc(OCC[18F])ccc3o2)cn1', '% ID/g', 2.58),
  ('CNc1ccc(-c2nc3cc(OCC[18F])ccc3o2)cn1', '% ID/g', 2.8);

[a] CNc1ccc(-c2nc3ccc(OCC[18F])cc3s2)cn1
[b] CN(C)c1ccc(-c2nc3ccc(OCCOCCOCC[18F])cc3s2)cn1
// query Which gives the smaller Drug uptake number: a or b ? Write the label of whichever entry you select.
// result a
(a: 3.02 % ID/g, b: 4.59 % ID/g)

* * *

System: Liver
Assay: Drug uptake in ICR mouse liver at 370 kBq/100 ul, iv at 60 mins by gamma-counting analysis
Type: ADME, organism-based
Conditions: in vivo, 1 h
measuredMetric: Drug uptake (% ID/g)

INSERT INTO results (structurenotation, measuredmetric, measurementunit, reported) VALUES
  ('CN(C)c1ccc(-c2nc3cc(OCC[18F])ccc3o2)cn1', 'Drug uptake', '% ID/g', 3.19);

[A] CNc1ccc(-c2nc3cc(OCC[18F])ccc3o2)cn1
[B] CN(C)c1ccc(-c2nc3ccc(OCCOCCOCC[18F])cc3s2)cn1
// query Param pair: A , B . Output: the one whose Drug uptake is numerically greater. Write the label of whichever entry you select.
// result B
(B: 4.75 % ID/g, A: 2.64 % ID/g)

* * *

Tested on: Spleen
Test: Drug uptake in ICR mouse spleen at 370 kBq/100 ul, iv at 10 mins by gamma-counting analysis
Assay type: ADME, organism-based
Conditions: in vivo
measuredMetric: Drug uptake (% ID/g)

Check out these entries, answers already filled in.
INSERT INTO assay_data (structurenotation, measurementunit, reported) VALUES
  ('CN(C)c1ccc(-c2nc3cc(OCCOCCOCC[18F])ccc3o2)cn1', '% ID/g', 2.69),
  ('CNc1ccc(-c2nc3cc(OCC[18F])ccc3o2)cn1', '% ID/g', 2.13),
  ('CN(C)c1ccc(-c2nc3cc(OCC[18F])ccc3o2)cn1', '% ID/g', 2.02),
  ('CNc1ccc(-c2nc3ccc(OCC[18F])cc3s2)cn1', '% ID/g', 3.29),
  ('CNc1ccc(-c2nc3cc(OCCOCCOCC[18F])ccc3o2)cn1', '% ID/g', 2.64);

[I] CN(C)c1ccc(-c2nc3ccc(OCCOCCOCC[18F])cc3s2)cn1
[II] CNc1ccc(-c2nc3ccc(OCCOCCOCC[18F])cc3s2)cn1
// query Which gives the smaller Drug uptake number: I or II ? Write the label of whichever entry you select.
// result II

* * *

Assay: Displacement of [125I]-IMPY from amyloid beta (1 to 42) fibrils after 2 hrs by gamma-counting analysis
measuredMetric: Ki (nM)

INSERT INTO assay_data (structurenotation, measurementunit, reported) VALUES
  ('CNc1ccc(-c2nc3cc(OCCF)ccc3o2)cn1', 'nM', 8),
  ('CN(C)c1ccc(-c2nc3cc(OCCOCCOCC[18F])ccc3o2)cn1', 'nM', 9.9),
  ('CNc1ccc(-c2nc3ccc(OCCOCCF)cc3s2)cn1', 'nM', 29.7),
  ('CNc1ccc(-c2nc3ccc(OCCOCCOCC[18F])cc3s2)cn1', 'nM', 9.3);

[I] CN(C)c1ccc(-c2nc3cc(OCCOCCF)ccc3o2)cn1
[II] CNc1ccc(-c2nc3cc(OCCOCCF)ccc3o2)cn1
// query Param pair: I , II . Output: the one whose Ki is numerically greater. Write the label of whichever entry you select.
// result II

* * *

Test system: Kidney
Experiment: Drug uptake in ICR mouse kidney at 370 kBq/100 ul, iv at 60 mins by gamma-counting analysis
Type: ADME, organism-based
Settings: in vivo, 1 h
measuredMetric: Drug uptake (% ID/g)

Check out these entries, answers already filled in.
INSERT INTO results (structurenotation, measuredmetric, reported) VALUES
  ('CNc1ccc(-c2nc3cc(OCC[18F])ccc3o2)cn1', 'Drug uptake', 3.04),
  ('CN(C)c1ccc(-c2nc3ccc(OCCOCCOCC[18F])cc3s2)cn1', 'Drug uptake', 3.01);

[1] CN(C)c1ccc(-c2nc3cc(OCCOCCOCC[18F])ccc3o2)cn1
[2] CN(C)c1ccc(-c2nc3cc(OCC[18F])ccc3o2)cn1
// query Which gives the smaller Drug uptake number: 1 or 2 ? Write the label of whichever entry you select.
// result 2
(2: 1.82 % ID/g, 1: 3.21 % ID/g)

* * *

Tested on: Lung
Assay: Drug uptake in ICR mouse lung at 370 kBq/100 ul, iv at 30 mins by gamma-counting analysis
Assay type: ADME, organism-based
Details: in vivo, 0.5 h
measuredMetric: Drug uptake (% ID/g)

INSERT INTO assay_data (structurenotation, targetentity, reported) VALUES
  ('CNc1ccc(-c2nc3ccc(OCC[18F])cc3s2)cn1', 'Lung', 3.57),
  ('CN(C)c1ccc(-c2nc3ccc(OCCOCCOCC[18F])cc3s2)cn1', 'Lung', 3.28),
  ('CNc1ccc(-c2nc3ccc(OCCOCCOCC[18F])cc3s2)cn1', 'Lung', 3.11),
  ('CN(C)c1ccc(-c2nc3cc(OCCOCCOCC[18F])ccc3o2)cn1', 'Lung', 2.64);

[P] CNc1ccc(-c2nc3cc(OCCOCCOCC[18F])ccc3o2)cn1
[Q] CN(C)c1ccc(-c2nc3cc(OCC[18F])ccc3o2)cn1
// query Param pair: P , Q . Output: the one whose Drug uptake is numerically greater. Write the label of whichever entry you select.
// result P
